# Test system: Chordin-like protein 2 (CHRDL2)
# ASSAY_REMARKS: compounds binding chordin-like 2 – biochemical, small-molecule microarray, 635 nm fluorescence, primary screen (AID 1126);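 also: printed compound slides probed with Chrdl2 protein at 4 µg/mL for 1 h at 4 C; score merges 667 nm emission intensity with signal to noise over three replicate slides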
# CONDITION_DETAILS: fluorescence 635 nm, higher = more signal
RESULT_TYPE: composite z-score
Give the value as a plain number.

Known results for molecules:
CCCNC(=O)[C@@H]1c2ccccc2C(=O)N(Cc2ccccc2OC)[C@H]1c1ccc(CO)cc1 | -0.0218
O=C(CS)NCCCCCNC(=O)[C@H]1C[C@H]2C(=O)NCC(=O)N2[C@H]1c1cccc(OCCO)c1 | 0.577
COCCOC(=O)N1C(=O)[C@@]2(c3cc(C#CC4(O)CCCCCC4)ccc31)[C@H](C(=O)Nc1nc3ccccc3s1)[C@H]1C(=O)O[C@H](c3ccccc3)[C@H](c3ccccc3)N1[C@@H]2c1ccc(OCCO)cc1 | 0.637

Now take the following molecule into account.
### Prompt Form field: reported composite z-score of COc1cc2c(cc1O)C(c1cccs1)N(Cc1cccc(OC(F)(F)F)c1)CC2 (centres undefined)
### Response 0.375

###

# ASSAY_REMARKS: probe aNOTCH2 binding on compound microarray – biochemical, small-molecule microarray, 635/667 nm fluorescence, primary screen (AID 1121);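 also: score merges feature fluorescence read at 667 nm with its signal to noise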
# CONDITION_DETAILS: higher = more signal
Listed below: composite z-score values for each entry.
Give the value as a plain number.

Known results for compounds:
CCCC[C@@H]1C[C@H]1[C@@H](NC(=O)c1cccnc1)c1ccc(Cl)cc1 | -0.185
C#CCNCc1ccccc1 | -0.117
C=CCN1C(=O)[C@]2(O[C@H](CCO)[C@@H]([Si](C)(C)c3ccc(OC)cc3)[C@@H]2C)c2cc(N(C=O)c3ccccc3)ccc21 | -0.0315
CCOC(=O)C1=CC[C@@H](c2ccc(C(F)(F)F)cc2)N(S(=O)(=O)c2ccc(C)cc2)[C@H]1c1ccccc1 | 0.21

### Prompt Form field: reported composite z-score of O=C1N(CCS(=O)(=O)c2ccccc2)c2ccccc2[C@@H]2OC(c3ccc(OCCCO)cc3)=N[C@]12Cc1ccccc1
### Response -0.0244

### Prompt Form field: reported composite z-score of O=C(CS)NCCCCCNC(=O)[C@H]1C[C@H]2C(=O)NCC(=O)N2[C@H]1c1ccc(O)cc1
### Response -0.185

###

# ASSAY_REMARKS: basal CRE-LacZ reporter activity in PC12 – cell-based, unstimulated, primary screen (AID 1145)
# CONDITION_DETAILS: no forskolin, luminescence, 4.5 h, higher = more signal, called active from +8 up or from −8 down
Listed below: z-score values for each entry.
Give the value as a plain number.

Known results for compounds:
CCCCCCc1nc(-c2ccc(-c3ccc(Cl)c(Cl)c3)o2)cc2c1[Si](C(C)C)(C(C)C)O[C@H]2c1ccccc1 | -0.113
O=C1NC(=O)C2C1C=CC(C(O)c1ccc(I)cc1)N2Nc1ccc(Cl)cc1Cl (centres undefined) | 1.77

### Prompt Form field: reported z-score of O=C1O[C@@H](c2ccccc2)[C@@H](c2ccccc2)N2[C@@H](c3ccccc3OCCO)[C@]3(C(=O)Nc4ccccc43)[C@@H](C(=O)O)[C@H]12
### Response 0.568

### Prompt Form field: reported z-score of COC(=O)[C@@]1(CCC(=O)OC(C)(C)C)N=C(c2ccc(OCCCO)cc2)O[C@H]1c1ccccc1
### Response 2.25

###

Listed below: z-score values for each entry.
# ASSAY_REMARKS: blockers of DNA damage checkpoint Chk1 activation – imaging, HeLa, hydroxyurea, phospho-Chk1 nuclear intensity, primary screen (AID 1187); also: test concentration not given here
# CONDITION_DETAILS: hydroxyurea-induced phospho-Chk1 immunofluorescence imaging, higher = more signal
Give the value as a plain number.

Known results for compounds:
[N-]=[N+]=Nc1ccccc1[C@H]1OC(c2ccc(OCCCO)cc2)=N[C@@]1(Cc1ccccc1)C(=O)N1CCOCC1 | 0.0969
C=CCN1C(=O)[C@]2(Cc3ccccc3)N=C(c3ccc(OCCCO)cc3)O[C@@H]2c2ccccc21 | -0.461

### Prompt Form field: reported z-score of COCCCNC(=O)[C@@]1(CCS(=O)(=O)c2ccccc2)N=C(c2ccc(OCCCO)cc2)O[C@H]1c1ccccc1N=[N+]=[N-]
### Response -0.624

### Prompt Form field: reported z-score of CCCCC(=C=CC[C@H](O)c1cccc(OCCO)c1)C[C@H](O)c1ccccn1
### Response -0.278

###

# ASSAY_REMARKS: probe aCHRDL2 binding to arrayed compounds – biochemical, biotinylated probe, 635/667 nm fluorescence, primary screen (AID 1100)
# CONDITION_DETAILS: small-molecule microarray, higher = more signal
RESULT_TYPE: composite z-score
Give the value as a plain number.

O=C1O[C@@H](c2ccccc2)[C@@H](c2ccccc2)N2[C@@H](c3ccccc3OCCO)[C@]3(C(=O)Nc4ccc(C#CC5(O)CCCCCC5)cc43)[C@@H](C(=O)N3CCN(c4ncccn4)CC3)[C@H]12 | 0.304

### Prompt Form field: reported composite z-score of Cc1c(NC(=O)/C(C#N)=C/c2cccc([N+](=O)[O-])c2)c(=O)n(-c2ccccc2)n1C
### Response -0.413

### Prompt Form field: reported composite z-score of NCCCCCNC(=O)[C@H]1C[C@H]2C(=O)N[C@@H](Cc3ccccc3)C(=O)N2[C@H]1c1cccc(OCCO)c1
### Response 0.942

### Prompt Form field: reported composite z-score of COCCCNC(=O)[C@@H]1c2ccccc2C(=O)N(Cc2ccccc2)[C@H]1c1ccc(CO)cc1
### Response 0.655

### Prompt Form field: reported composite z-score of CC(C)[Si](C#C[Si](C(C)C)(C(C)C)C(C)C)(O[C@H](C)c1cn(Cc2ccccc2)nn1)C(C)C
### Response -0.252

### Prompt Form field: reported composite z-score of [N-]=[N+]=NCc1ccccc1[C@@H]1OC(c2ccc(OCCCO)cc2)=N[C@]1(CCS(=O)(=O)c1ccccc1)C(=O)N1CCCCC1
### Response 0.904

### Prompt Form field: reported composite z-score of O=C(O)C1N=C(c2ccc(OCCCO)cc2)N(c2ccccc2)O1 (configuration not stated)
### Response 0.391

###

# ASSAY_REMARKS: probe aInhba binding on compound microarray – biochemical, small-molecule microarray, 635/667 nm fluorescence, primary screen (AID 1148);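 also: score merges 667nm spot fluorescence with signal-to-noise for antibody binding to printed compounds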
# CONDITION_DETAILS: higher = more signal
Threshold rule: composite z-score greater than or equal to -0.1 is true (1); below that, false (0).

Use the examples below as a reference point.
C=CC[C@@]1(C(=O)N2CCCCC2)N=C(c2ccc(OCCCO)cc2)O[C@@H]1c1ccccc1CN=[N+]=[N-] | true (1)
CCN(CC)c1ccc(N2CC=CC34O[C@@H]5C=CCOC(=O)[C@@H]5[C@H]3C(=O)N(CCCCCCO)[C@@H]4C2=O)cc1 (stereo not given in full) | false (0)
CCOC(=O)C[C@H]1[C@H](OC(=O)c2ccc(C(=O)c3ccccc3)cc2)[C@@H](NC(=O)Cc2ccc(OC)cc2)c2cc(OCCCO)ccc2N1C(=O)c1ccc2ccccc2n1 | true (1)

### Prompt Record [N-]=[N+]=Nc1ccccc1[C@H]1OC(c2ccc(OCCCO)cc2)=N[C@@]1(Cc1ccccc1)C(=O)N1CCOCC1 ; criterion: composite z-score no lower than -0.1. Met?
### Response true (1)

### Prompt Record [N-]=[N+]=Nc1ccccc1[C@H]1OC(c2ccc(OCCCO)cc2)=N[C@@]1(CCS(=O)(=O)c1ccccc1)C(=O)NCc1ccccc1 ; criterion: composite z-score no lower than -0.1. Met?
### Response true (1)

### Prompt Record COc1cc2c(cc1O)C(c1cccs1)N(Cc1cccc(OC(F)(F)F)c1)CC2 (stereo not given) ; criterion: composite z-score no lower than -0.1. Met?
### Response true (1)

###

# ASSAY_REMARKS: viability profiling in MM1S myeloma cells – cell-based, resazurin fluorescence, basal, 24 h, PK04 Diversity Set, profiling panel (AID 1174);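 also: MM1S multiple myeloma cell line; test concentration not given here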
# CONDITION_DETAILS: higher = more signal, called active from +8 up or from −8 down
Threshold rule: z-score greater than or equal to -0.9 is satisfied; below that, not satisfied.

Use the examples below as a reference point.
O=C1O[C@@H](c2ccccc2)[C@@H](c2ccccc2)N2[C@@H](c3ccc(OCCO)cc3)[C@]3(C(=O)Nc4ccc(C#CCCO)cc43)[C@@H](C(=O)NC[C@H](O)c3ccccc3)[C@H]12 | satisfied
O=C1C2C=CC(C(O)c3cc(C(F)(F)F)cc(C(F)(F)F)c3)N(Nc3ccccc3)C2C(=O)N1c1ccccc1 (stereo not given) | not satisfied
COc1ccc([C@H]2C[C@H]3C(I)=C[C@@H]2C(=O)[C@]32CO2)cc1 | satisfied
CC(C)[Si](C#C[Si](C(C)C)(C(C)C)C(C)C)(O[C@H](C)c1cn(Cc2ccccc2)nn1)C(C)C | satisfied

Alright, here's another molecule for you.
### Prompt Record CS(=O)(=O)CCOC(=O)C1=CC(CCCO)=CC(c2ccc(CN3CCCC3)cc2)N(Cc2cccc(OC(F)(F)F)c2)C=C1C(=O)OCCS(C)(=O)=O (stereo not given) ; criterion: z-score no lower than -0.9. Met?
### Response satisfied
